Reference source: PubChem BioAssay (NCI)

- Test system: OVCAR-5 ovarian
- experimental details: NCI-60 one-dose screen, 48 h (100 = growth as untreated, 0 = no growth, -100 = all killed)
- condition description: 10 µM
This is part of a sample that, as a whole, favours compounds with a hit. Of some 83,000 tested, about 20% had one in any assay.
Form field: growth (one value per entry).
Give the value, in units of %, as a plain number.

{"molecule": "N#Cc1ncc(-c2cc(F)c(F)c(F)c2)c(NC2CCCCCC2)n1", "measured result": 104}
{"molecule": "COc1cc(C(=O)/C=C/c2cc(-c3cc(OC)c(OC)c(OC)c3)n[nH]2)cc(OC)c1OC", "measured result": 44.9}
{"molecule": "N#CCCN1C/C(=C/c2ccccc2)C(=O)/C(=C/c2ccccc2)C1", "measured result": 84.4}
{"molecule": "Clc1ccc2c(NCCCNc3nccc(Nc4ccc(Br)cc4)n3)ccnc2c1", "measured result": 15.3}
{"molecule": "CS(=O)(=O)Nc1ccc(Nc2c3ccccc3nc3cc(N)ccc23)cc1", "measured result": 56.6}
{"molecule": "COc1ccc(/C=C/C(=O)Nc2ccc(-c3nc4ccc(F)cc4s3)cc2)cc1", "measured result": 112}

query: Find the measured growth of `FC(F)(F)c1ccc(-c2cnc(-n3cc(COCCN4CCCCC4)nn3)nc2NC2CCCCCC2)cc1` and report it.
result: 67.9

query: Find the measured growth of O=C(CC(NC(=O)OCc1ccccc1)C(=O)OCc1ccccc1)OCc1ccccc1 (stereo not drawn) and report it.
result: 103

====

Form field: growth (one value per entry).
- Tested on: UO-31 renal
- experimental details: NCI-60 one-dose screen, 48 h (100 = growth as untreated, 0 = no growth, -100 = all killed)
- condition description: 10 µM
This is part of a sample that, as a whole, favours compounds with a hit. Of some 83,000 tested, about 20% had one in any assay.
Give the value, in units of %, as a plain number.

Recorded results for 3 molecules are shown here.
{"smiles code": "CC(=O)c1nc2ccccc2n1CCNC(N)=O", "unit of measure": "%", "measured result": 78.8}
{"smiles code": "CCCCCCc1cc(N=Nc2ccc(S(=O)(=O)Nc3cc(C)nc(C)n3)cc2)c(O)cc1O", "unit of measure": "%", "measured result": 74.5}
{"smiles code": "Nc1nc(-c2ccccc2Cl)cc(-c2ccc(Cl)cc2Cl)n1", "unit of measure": "%", "measured result": 62.5}

query: Find the measured growth of `COc1cc(C)ccc1C(=O)c1ccc(C)cc1OC` and report it.
result: 31.4

====

Form field: growth (one value per entry).
- System: SNB-19 CNS
- experimental details: NCI-60 one-dose screen, 48 h (100 = growth as untreated, 0 = no growth, -100 = all killed)
- condition description: 10 µM
This is part of a sample that, as a whole, favours compounds with a hit. Of some 83,000 tested, about 20% had one in any assay. Activity calls are given as the source filed them. How the source made its calls: active means growth percent below 10; inactive means the rest.

Recorded results for 2 molecules are shown here.
{"molecule": "CCOCC(=O)C(C#N)c1ccc(Cl)c(Cl)c1 (stereo unspecified)", "growth": "107% (inactive)"}
{"molecule": "Nc1ccn(C2CC(O)C(CO)O2)c(=O)n1 (stereo unspecified)", "growth": "99.7% (inactive)"}

query: Find the measured growth of `COc1ccc(Cl)cc1C(=O)Nc1nc2ccc(Cl)cc2s1` and report it.
result: 103% (inactive)

query: Find the measured growth of `CN(C)CCS(=O)(=O)CCN(C)C` and report it.
result: 103% (inactive)

query: Find the measured growth of COc1ccc(C2=Nc3c(C)nn(-c4ccccc4)c3NC(c3ccc(Oc4ccnc5cc(Cl)ccc45)c(OC)c3)C2)cc1 (stereo unspecified) and report it.
result: 78.6% (inactive)

query: Find the measured growth of `COc1ccc(-c2cc(/C=C/C(=O)c3cc(OC)c(OC)c(OC)c3)[nH]n2)cc1OC` and report it.
result: 25.5% (inactive)

====

- Tested on: OVCAR-3 ovarian
- experimental details: NCI-60 one-dose screen, 48 h (100 = growth as untreated, 0 = no growth, -100 = all killed)
- condition description: 10 µM
About 83,000 compounds went through this panel and 20% of them were active in at least one assay; those are over-represented in the sample as a whole.
Form field: growth (one value per entry).
Give the value, in units of %, as a plain number.

Recorded results for 3 compounds are shown here.
{"smiles code": "COc1cc(-c2cc(/C=C3\\C(=O)Nc4ccccc43)[nH]n2)cc(OC)c1OC", "growth / %": 57.8}
{"smiles code": "N#Cc1c(C#N)c(SSc2c(C#N)c(C#N)c(N)n2-c2ccccc2)n(-c2ccccc2)c1N", "growth / %": 127}
{"smiles code": "O=S(=O)(NCCCNc1nccc(-c2c(-c3ccc(F)cc3)nc3sccn23)n1)c1ccc2ccccc2c1", "growth / %": 75.3}

query: Find the measured growth of `CC1(C)N=C(N)N=C(N)N1c1ccc(CCc2ccccc2)c(Cl)c1` and report it.
result: 23.7

query: Find the measured growth of `S=c1[nH]ccn1-c1c(Cl)cccc1Cl` and report it.
result: 111

query: Find the measured growth of `CCOC(=O)N/N=C\C(C)=N\NC(=O)OCC` and report it.
result: 106

====

Form field: growth (one value per entry).
- Test system: SNB-19 CNS
- experimental details: NCI-60 one-dose screen, 48 h (100 = growth as untreated, 0 = no growth, -100 = all killed)
- condition description: 10 µM
This is part of a sample that, as a whole, favours compounds with a hit. Of some 83,000 tested, about 20% had one in any assay.
Give the value, in units of %, as a plain number.

Recorded results for 2 compounds are shown here.
{"smiles code": "O=S(=O)(NCCCNc1nccc(-c2c(-c3ccc(F)cc3)nc3sccn23)n1)c1ccc2ccccc2c1", "growth (%)": 82.4}
{"smiles code": "COc1ccc(-c2cc(/C=C3\\C(=O)Nc4ccc(OC)cc43)[nH]n2)cc1", "growth (%)": 62.1}

query: Find the measured growth of `CCCCC/C=C/C(=O)CCc1ccc(O)c(OC)c1` and report it.
result: 87.1

query: Find the measured growth of `COc1ccccc1CNCCCN1C(=O)c2ccc3c4c(ccc(c24)C1=O)C(=O)N(CCCN)C3=O` and report it.
result: -5.76

query: Find the measured growth of `Cc1c(Cl)cccc1NC(=O)c1sc2nc3c(cc2c1N)C(=O)CCC3` and report it.
result: 45.4

query: Find the measured growth of `Cc1ccc(NC(=O)Nc2c(Cl)cccc2Cl)cn1` and report it.
result: 102

query: Find the measured growth of `N#Cc1c(C#N)c(SSc2c(C#N)c(C#N)c(N)n2-c2ccccc2)n(-c2ccccc2)c1N` and report it.
result: 103

====

- Tested on: K-562 leukemia
- experimental details: NCI-60 one-dose screen, 48 h
- condition description: 10 µM
The panel holds about 83,000 compounds, 20% with a hit somewhere; the sample as a whole holds those more often. Calls of active or inactive are those of the source. The calls were made as follows: active = growth percent below 10; inactive = the rest.
// allowed return values: active, inactive

Known results for compounds:
{"compound": "O=C(C[P+](c1ccccc1)(c1ccccc1)c1ccccc1)C[P+](c1ccccc1)(c1ccccc1)c1ccccc1", "classification": "active"}
{"compound": "CCCCOC(=O)Oc1ccc(C(=O)Oc2ccc(OCC)cc2)cc1", "classification": "inactive"}
{"compound": "COc1cc(Cc2cc(-c3ccc(Cl)cc3)n[nH]c2=O)ccc1O", "classification": "inactive"}

query: What call does the record list for CCCC(F)C(=O)O (stereo not given) ?
result: inactive

query: What call does the record list for `N=C(N)c1ccc(-c2ccc(-c3cccs3)o2)cc1` ?
result: active

query: What call does the record list for N#CSCC1CC(O)(c2ccccc2)CC(c2ccc(Cl)cc2)O1 (stereo not given) ?
result: inactive

query: What call does the record list for `COc1ccc2c(c1)O/C(=C\c1ccc([N+](=O)[O-])s1)C2=O` ?
result: active

query: What call does the record list for `COc1cc2nc(Nc3cccc(NC(C)=O)c3)nc(N)c2cc1OC` ?
result: inactive

====

- Tested on: IGROV1 ovarian
- experimental details: NCI-60 one-dose screen, 48 h
- condition description: 10 µM
Compounds without any hit were thinned out: in the full panel of roughly 83,000, 20% have a hit. Activity calls are given as the source filed them. How the source made its calls: active means growth percent below 10; inactive means the rest.
// allowed return values: class 1 for active, class 0 for inactive

Known results for compounds:
{"compound": "COc1cc(Cl)cc(-c2nn(-c3cccc(NC(=O)Nc4ccc(Cl)c(C(F)(F)F)c4)c3)cc2-c2ccncc2)c1", "experimental system": "IGROV1 ovarian", "classification": "class 0"}
{"compound": "CCN1CCCC1CNC(=O)c1ncc(-c2ccc(C(F)(F)F)cc2)c(NC2CCCCCC2)n1 (stereo unspecified)", "experimental system": "IGROV1 ovarian", "classification": "class 0"}
{"compound": "FC(F)(F)c1ccc(-c2cnc(Cl)nc2N2CCC3(CC2)OCCO3)cc1", "experimental system": "IGROV1 ovarian", "classification": "class 0"}

query: What call does the record list for `Fc1ccc(-c2nnc(-c3c(-c4ccc(F)cc4)nc4ccccn34)o2)cc1` ?
result: class 0

query: What call does the record list for `CCOC(=O)N1C/C(=C/c2ccc(F)cc2)C(=O)/C(=C/c2ccc(F)cc2)C1` ?
result: class 1

query: What call does the record list for `COc1ccc(-c2nc(-c3nc4cc(Cl)c(F)cc4[nH]3)c3ccccn23)cc1` ?
result: class 0

query: What call does the record list for `N#CCCN(NC(=O)OCc1ccccc1)C(=O)OCc1ccccc1` ?
result: class 0
